Reference source: the supplement of paper PMC6755084

B1: minF1; the commonest letter at each place (parent)
chain: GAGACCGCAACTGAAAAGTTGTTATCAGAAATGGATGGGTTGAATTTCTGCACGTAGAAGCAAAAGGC

# Variants of: B1
# Assay explanation: fraction ligated after 30 min (ligated reads / total reads); higher = more ligase activity
# Measurement parameters: with F1*subA RNA substrate (template-directed ligation), 42 °C
Parameter fraction ligated: see the listing below.

Use these answered entries as a reference point.
T25C A27T: 0.407
A24G G34C: 0.00145
T25G A31G: 0.0115
G42A A43T: 0.00678
T32C T36G: 0.00825
T23A G37C: 0.00499
A29T A30G: 0.821
A27C G42C: 0.0124

Ask | Complete the entry with fraction ligated for G37T A44T
Reply | 0.0093

Ask | Dear colleague, please send me the reported fraction ligated for G28T A44T when you can.
Reply | 0.794

Ask | Provide one value: measured fraction ligated of T23C A24G
Reply | 0.0315

Ask | Hello, please tell me recorded fraction ligated for this one: G42C A43T A44C
Reply | 0.000795

Ask | Check the records and state fraction ligated for A43C
Reply | 0.115
